Target: Potassium voltage-gated channel subfamily KQT member 1 (Homo sapiens) (UniProt P51787)
Sequence (P51787 whole entry, looked up): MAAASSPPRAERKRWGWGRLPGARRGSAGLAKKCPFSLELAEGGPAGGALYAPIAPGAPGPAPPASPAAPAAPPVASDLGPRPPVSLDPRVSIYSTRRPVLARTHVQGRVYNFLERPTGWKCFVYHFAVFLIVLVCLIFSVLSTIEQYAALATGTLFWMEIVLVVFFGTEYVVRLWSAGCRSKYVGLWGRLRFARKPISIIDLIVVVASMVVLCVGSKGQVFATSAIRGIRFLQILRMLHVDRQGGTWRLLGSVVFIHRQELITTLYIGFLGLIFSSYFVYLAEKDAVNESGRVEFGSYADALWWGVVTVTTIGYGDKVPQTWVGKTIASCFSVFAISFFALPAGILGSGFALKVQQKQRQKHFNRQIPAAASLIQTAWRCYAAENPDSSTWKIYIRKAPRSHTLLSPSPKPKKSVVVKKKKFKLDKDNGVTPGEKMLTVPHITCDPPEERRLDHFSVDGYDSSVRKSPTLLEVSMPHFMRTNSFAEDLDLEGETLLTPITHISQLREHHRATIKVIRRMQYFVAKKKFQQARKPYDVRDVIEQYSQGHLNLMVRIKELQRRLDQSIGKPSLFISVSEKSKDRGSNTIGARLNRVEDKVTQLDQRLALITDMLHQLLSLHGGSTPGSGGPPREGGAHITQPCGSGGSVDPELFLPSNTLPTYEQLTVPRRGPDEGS
Assay: KCNQ1 channel current potentiators, confirmation, orthogonal assay for KCNQ1 potentiator project, IonWorks patch clamp, KCNQ1-CHO cells (AID 493184)
Settings: automated patch clamp current, at 10 µM; stronger effect = higher value
Active and inactive are the calls of the source.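 The calls were made as follows: active = current rise at least 3 SD above the untreated control mean in each of two repeat wells; inactive = the rest.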

[
  {
    "Compound": "CCCSc1ncnc2c1oc1ccccc12",
    "current potentiation": "inactive"
  },
  {
    "Compound": "Cc1ccc(C)c(/C=N/n2cc(-c3ccccc3)[nH]c2=S)c1",
    "current potentiation": "inactive"
  },
  {
    "Compound": "O=C(NN=C1CCCC1)c1n[nH]c2c1CCC2",
    "current potentiation": "inactive"
  },
  {
    "Compound": "O=S(=O)(c1cc(F)cc(F)c1)N1CCN(c2ncccn2)CC1",
    "current potentiation": "inactive"
  },
  {
    "Compound": "CC1=NOC(=O)/C1=C\\c1ccc(-c2ccc(Br)cc2)o1",
    "current potentiation": "inactive"
  },
  {
    "Compound": "N=c1ncn(Cc2ccccc2)c2nc(SCCOc3ccccc3)[nH]c12",
    "current potentiation": "inactive"
  },
  {
    "Compound": "O=C(N/N=C/c1ccccn1)c1cc(Br)ccc1O",
    "current potentiation": "inactive"
  },
  {
    "Compound": "Cc1nc(NCCc2cnc[nH]2)c2oc3ccccc3c2n1",
    "current potentiation": "inactive"
  },
  {
    "Compound": "COCCN(C(=O)COC(=O)/C=C/c1cccs1)c1c(N)n(Cc2ccccc2)c(=O)[nH]c1=O",
    "current potentiation": "inactive"
  },
  {
    "Compound": "CC(=O)Nc1c2c(nn1-c1ccc(C)cc1)CS(=O)(=O)C2",
    "current potentiation": "inactive"
  },
  {
    "Compound": "CCOC(=O)/C(C)=N/NC(=O)c1ccc([N+](=O)[O-])cc1",
    "current potentiation": "inactive"
  },
  {
    "Compound": "COc1cccc(OC)c1C(=O)Nc1ccc(C(=O)NCc2ccccc2)cc1",
    "current potentiation": "inactive"
  },
  {
    "Compound": "COc1ccc(OC)c(NC(=S)NC(=O)c2ccc(Br)o2)c1",
    "current potentiation": "inactive"
  },
  {
    "Compound": "CCOC(=O)c1n[nH]n2c1nc(=S)c1ccccc12",
    "current potentiation": "inactive"
  },
  {
    "Compound": "Cc1cc(OC(=O)c2cc(Cl)ccc2Cl)c([N+](=O)[O-])c(=O)[nH]1",
    "current potentiation": "inactive"
  },
  {
    "Compound": "CCCCCCCCCCCCC/C=C/[C@@H](O)[C@@H](N)CO",
    "current potentiation": "inactive"
  },
  {
    "Compound": "Cc1cccc(-c2n[nH]c(=S)n2/N=C/c2cccs2)c1",
    "current potentiation": "inactive"
  },
  {
    "Compound": "Oc1c(Br)cc(Br)cc1C=Nc1ccc2c(c1)OCCO2",
    "current potentiation": "inactive"
  },
  {
    "Compound": "CN1C=CC=C/C1=C1\\SC(=S)N(C2CCCCC2)C1=O",
    "current potentiation": "inactive"
  },
  {
    "Compound": "CCOC(=O)C(=NCC1CCCO1)NNc1ccccc1Cl (stereo unspecified)",
    "current potentiation": "inactive"
  },
  {
    "Compound": "CC(=O)C[C@H]1c2cc(C(F)(F)F)ccc2S(=O)(=O)N1Cc1ccccc1",
    "current potentiation": "inactive"
  },
  {
    "Compound": "COc1cccc(C(=O)NNC(=O)C(=O)Nc2ccc(OC)cc2OC)c1",
    "current potentiation": "inactive"
  },
  {
    "Compound": "COCCn1cnc2c1c(=O)n(CC#N)c(=O)n2Cc1ccccc1",
    "current potentiation": "inactive"
  },
  {
    "Compound": "O=C1CCC/C(=N\\NC(=O)c2ccc(COc3cccc4cccnc34)cc2)C1",
    "current potentiation": "inactive"
  },
  {
    "Compound": "CC(=O)Nc1ccc(S(=O)(=O)N2CCC(C(=O)O)CC2)cc1",
    "current potentiation": "inactive"
  },
  {
    "Compound": "COc1cc2c(cc1OC)CN(C(=O)CNC(=O)c1ccc(OC(F)F)cc1)CC2",
    "current potentiation": "inactive"
  },
  {
    "Compound": "CC(C)C1Cc2c(sc3[nH]c(=S)n(Cc4ccccc4)c(=O)c23)CO1 (stereo unspecified)",
    "current potentiation": "inactive"
  },
  {
    "Compound": "CCNC(=S)Nc1scc(-c2ccccc2)c1C(=O)OCC",
    "current potentiation": "inactive"
  },
  {
    "Compound": "CC(C)(C)NC(=O)C(=O)NNC(=O)COc1ccc(Br)cc1",
    "current potentiation": "inactive"
  },
  {
    "Compound": "CC(=O)Nc1ccc(S(=O)(=O)Nc2nc3ccccc3nc2Nc2ccccc2)cc1",
    "current potentiation": "inactive"
  },
  {
    "Compound": "CCOC(=O)c1[nH]c2cc(OC)c(OC)cc2c1NC(=O)CN(C)C1CCCCC1",
    "current potentiation": "inactive"
  },
  {
    "Compound": "O=C(Nc1ccc(Cl)cn1)c1cccc(S(=O)(=O)N2CCOCC2)c1",
    "current potentiation": "inactive"
  },
  {
    "Compound": "COc1cccc(C(=O)Nc2nc(-c3ccccc3)c(-c3ccccc3)o2)c1",
    "current potentiation": "inactive"
  },
  {
    "Compound": "CCOC(=O)CSc1nc2ccccc2n2c(C)nnc12",
    "current potentiation": "inactive"
  },
  {
    "Compound": "O=[N+]([O-])c1ccc(S(=O)(=O)CC(CN2CCCCC2)N2CCCCC2)cc1 (stereo unspecified)",
    "current potentiation": "inactive"
  },
  {
    "Compound": "Cc1ccc(S(=O)(=O)N2CCN(C(=O)CCC(=O)OCC(=O)Nc3cccc(C#N)c3)CC2)cc1",
    "current potentiation": "inactive"
  },
  {
    "Compound": "Oc1ccc(N=Nc2ccc3c(c2)OCCO3)c2ncccc12",
    "current potentiation": "inactive"
  },
  {
    "Compound": "S=c1nc[nH]c2c1sc1nc(-c3ccccc3)c3c(c12)CCCC3",
    "current potentiation": "inactive"
  },
  {
    "Compound": "Cc1ccc(S(=O)(=O)N(C)c2nc3ccccc3[nH]c2=S)cc1",
    "current potentiation": "inactive"
  },
  {
    "Compound": "N#Cc1cn(CC(=O)NCC2CCCO2)c2ccccc12 (stereo unspecified)",
    "current potentiation": "inactive"
  },
  {
    "Compound": "FC(F)(F)c1cnc2c(c1)[nH]c(=S)n2-c1ccc(Cl)cc1",
    "current potentiation": "inactive"
  },
  {
    "Compound": "Cc1ccc(OCCCC(=O)NCc2ccco2)c(C)c1",
    "current potentiation": "inactive"
  },
  {
    "Compound": "CCOC(=O)C1=NN(C(=O)c2ccc(C)cc2)C(O)(c2ccc(Cl)cc2)C1 (stereo unspecified)",
    "current potentiation": "inactive"
  },
  {
    "Compound": "Cn1c(=S)[nH]c2scc(-c3cccs3)c2c1=O",
    "current potentiation": "inactive"
  },
  {
    "Compound": "Nc1c(-c2ccccc2)cnc2c(-c3ccccc3)cnn12",
    "current potentiation": "inactive"
  },
  {
    "Compound": "COC(=O)c1c(N)sc2c1CCN(c1ncc(C(F)(F)F)cc1Cl)C2",
    "current potentiation": "inactive"
  }
]

###

Tested on: transient receptor potential cation channel C4 beta (TRPC4), mouse
Assay: activators of mouse TRPC4 channel, confirmation, cell-based, second round, Fluo4, HEK293 TRPC4beta/mu-opioid, 1 µM (AID 2461)
Conditions: Fluo4 calcium fluorescence, at 1 µM
Active and inactive are the calls of the source.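 Rule for the calls: active = primary screen active and over 50% activation in each of two duplicate runs; inactive = the rest.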
Labels: active, inactive

[
  {
    "Molecule": "CCCC(=O)NC(C)C(c1cccs1)N1CCN(c2ccccc2)CC1 (stereo unspecified)",
    "Assigned label": "inactive"
  },
  {
    "Molecule": "CC1CC(C)CN(CCCNC(=O)c2nn(C)c3c2CS(=O)(=O)c2ccccc2-3)C1 (stereo unspecified)",
    "Assigned label": "active"
  },
  {
    "Molecule": "O=C(NC(=S)NNC(=O)[C@H]1C[C@@H]1c1ccccc1)c1cccc(F)c1",
    "Assigned label": "inactive"
  },
  {
    "Molecule": "CC(NCc1cc(Br)ccc1OCC(=O)NCc1ccccc1)c1ccccc1 (stereo unspecified)",
    "Assigned label": "inactive"
  },
  {
    "Molecule": "Cc1ccccc1C(=O)NNC(=S)NC(=O)c1ccccc1",
    "Assigned label": "inactive"
  },
  {
    "Molecule": "C#Cc1cccc(C(=O)NC2CCCN(C3Cc4ccccc4C3)C2)c1 (stereo unspecified)",
    "Assigned label": "active"
  },
  {
    "Molecule": "CCN1CCN(c2ccc(S(=O)(=O)N3CCOCC3)cc2NC(=O)C(C)Oc2cccc(Cl)c2)CC1 (stereo unspecified)",
    "Assigned label": "inactive"
  },
  {
    "Molecule": "CN(C)C(CNC(=S)Nc1cccc(Cl)c1)c1cccnc1 (stereo unspecified)",
    "Assigned label": "active"
  },
  {
    "Molecule": "O=S(=O)(c1ccc(Cl)cc1)N1CCN2CCCC2C1 (stereo unspecified)",
    "Assigned label": "inactive"
  },
  {
    "Molecule": "Cn1c(-c2cccc3ccccc23)n[nH]c1=S",
    "Assigned label": "active"
  },
  {
    "Molecule": "CC1CN(C(=O)c2ccc(NS(=O)(=O)c3ccc(C(C)(C)C)cc3)cc2)CC(C)O1 (stereo unspecified)",
    "Assigned label": "inactive"
  }
]
